- Test system: mouse Bcrp
- assay: Efflux ratio of apparent permeability across basolateral to apical over apical to basolateral side in mouse Bcrp-transfected dog MDCK-II cells at 0.1 to 1 uM measured after 3 hrs by LC/MS/MS analysis
- Format: ADME, cell-based, Canis lupus familiaris
- test-conditions: dose 0.1-1 µM
readout: efflux ratio at 3 h, up to 1 µM

Use these answered entries as a reference point.
molecule	subject-of-test	efflux ratio at 3 h, up to 1 µM
CC(C)(O)Cn1ncc(Nc2ncc3cc(Cl)c(C4CCN(C5COC5)CC4)cc3n2)c1Cl	mouse Bcrp	4.2
O[C@H]1COC[C@H]1N1CC[C@@H](c2cc3nc(Nc4cnn([C@@H]5CC5(F)F)c4Cl)ncc3cc2Cl)[C@H](F)C1	mouse Bcrp	3.8
Clc1cc2cnc(Nc3cnn(C4CC4)c3Cl)nc2cc1C1CCN(C2COC2)CC1	mouse Bcrp	0.6
Cc1c(Nc2ncc3cc(Cl)c(C4CCN([C@@H]5COC[C@@H]5O)CC4)cc3n2)cnn1[C@@H]1CC1(F)F	mouse Bcrp	4.1

a = Cc1c(Nc2ncc3cc(Cl)c(C4CCN(C5COC5)CC4)cc3n2)cnn1C1CC1
b = FC1CN(C2COC2)CCC1c1cc2nc(Nc3cnn(C4CC4)c3Cl)ncc2cc1Cl (stereo unspecified)
Among a and b , which shows a numerically higher efflux ratio at 3 h, up to 1 µM result? I would appreciate it if you answered with the label of your choice.
a
(a: 4.2, b: 1.3)

Data provenance is ChEMBL document CHEMBL5042510.
